# System: tubulin
# test name: Inhibition of [3H]colchicine binding to tubulin
# condition set: 1 μM inhibitor; 1.0 μM tubulin, 5.0 μM [3H]colchicine
readout label: % Inhibition of colchicine binding ± SD (%)
Give the value in % but do not write % after it.

COc1ccc2c(c1)CCCC=C2c1ccc(OC)c(OC)c1OC	36
COc1ccc(/C=C\c2cc(OC)c(OC)c(OC)c2)cc1O [CA4, combretastatin A-4, reference compound]	84
COc1ccc2c(c1O)CCCCC2c1cc(OC)c(OC)c(OC)c1 (stereo not shown)	21

Now let's try a different one.
Give recorded % Inhibition of colchicine binding ± SD. COc1ccc2c(c1)CCCC=C2c1cc(OC)c(OC)c(OC)c1 37

----------
# Test system: SK-OV-3 (ovarian)
# test name: SRB cytotoxicity assay, SK-OV-3
# Assay type: cell-based, human
# condition set: read-out: GI50 (μM) SRB assay SK-OV-3; SK-OV-3, 48 h, average of n ≥ 3
readout label: GI50 (µM)
Give the value in µM but do not write µM after it.

// known answers, use as guide
COc1cc(C2CCCCc3c2ccc(OC)c3OP(=O)([O-])[O-])cc(OC)c1OC.[Na+].[Na+] (stereo not shown)	0.357
COc1ccc2c(c1OP(=O)(O)O)CCCC=C2c1cc(C(F)(F)F)cc(C(F)(F)F)c1	17.2
COc1ccc2c(c1O)CCCC=C2c1ccc(OC)c(OC)c1OC	3.53

Now let's try a different one.
Give recorded GI50. COc1ccc(/C=C\c2cc(OC)c(OC)c(OC)c2)cc1OP(=O)(O)O [CA4P, combretastatin A-4P, reference compound] 0.00119

----------
Measured GI50 accompanies every entry in the list below.
# System: NCI-H460 (lung)
# test name: SRB cytotoxicity assay, NCI-H460
# Type: cell-based, human
# condition set: Homo sapiens, NCI-H460, 48 h, read-out: GI50 (μM) SRB assay NCI-H460
Give the value in µM but do not write µM after it.

// known answers, use as guide
Oc1ccc2c(c1O)CCCC=C2c1cc(C(F)(F)F)cc(C(F)(F)F)c1	25
COc1cc(C2=CCCCc3cc(O)ccc32)cc(OC)c1OC	0.647
COc1ccc(C2=CCCCc3c2ccc(OC)c3OC)cc1	33.4
COc1ccc2c(c1OC)CCCC=C2c1cc(C(F)(F)F)cc(C(F)(F)F)c1	25.5
COc1ccc(C2=CCCCc3cc(OC)ccc32)cc1	57.7

Now let's try a different one.
Give recorded GI50. COc1ccc(/C=C\c2cc(OC)c(OC)c(OC)c2)cc1O [CA4, combretastatin A-4, reference compound] 0.00223

----------
# System: tubulin
# test name: Inhibition of [3H]colchicine binding to tubulin
# condition set: 5 μM inhibitor; 1.0 μM tubulin, 5.0 μM [3H]colchicine
Measured % Inhibition of colchicine binding ± SD accompanies every entry in the list below.
Give the value in % but do not write % after it.

// known answers, use as guide
COc1ccc2c(c1)CCCC=C2c1ccc(OC)c(OC)c1OC	69
COc1cc(C2=CCCCc3c2ccc(OC)c3OC)cc(OC)c1OC	30
COc1ccc2c(c1O)CCCC=C2c1cc(C(F)(F)F)cc(C(F)(F)F)c1	8.5
COc1ccc2c(c1)CCCC=C2c1cc(OC)c(OC)c(OC)c1	72

Now let's try a different one.
Give recorded % Inhibition of colchicine binding ± SD. COc1ccc2c(c1O)CCCCC2c1cc(OC)c(OC)c(OC)c1 (stereo not shown) 67

----------
# System: NCI-H460 (lung)
# test name: SRB cytotoxicity assay, NCI-H460
# Assay type: cell-based, human
# condition set: Homo sapiens, NCI-H460, 48 h, read-out: GI50 (μM) SRB assay NCI-H460
Measured GI50 accompanies every entry in the list below.
Give the value in µM but do not write µM after it.

COc1ccc2c(c1OC)CCCC=C2c1ccc(OC)c(OC)c1OC	10.5
COc1ccc2c(c1)CCCC=C2c1ccc(OC)c(OC)c1OC	0.12
COc1ccc2c(c1)CCCC=C2c1cc(OC)c(OC)c(OC)c1	0.0527
COc1ccc2c(c1C)CCCC=C2c1cc(OC)c(OC)c(OC)c1	0.422
CCc1c(OC)ccc2c1CCCC=C2c1cc(OC)c(OC)c(OC)c1	0.763
COc1ccc2c(c1OC)CCCC=C2c1ccccc1	37.5

Give recorded GI50. COc1ccc2c(c1O)CCCC=C2c1cc(C(F)(F)F)cc(C(F)(F)F)c1 4.39

Give recorded GI50. CCCc1c(OC)ccc2c1CCCC=C2c1cc(OC)c(OC)c(OC)c1 3.32

Give recorded GI50. COc1ccc2c(c1O)CCCCC2c1cc(OC)c(OC)c(OC)c1 (stereo not drawn) 0.141

----------
# System: NCI-H460 (lung)
# test name: SRB cytotoxicity assay, NCI-H460
# Type: cell-based, human
# condition set: Homo sapiens, NCI-H460, 48 h, read-out: GI50 (μM) SRB assay NCI-H460
Measured GI50 accompanies every entry in the list below.
Give the value in µM but do not write µM after it.

// known answers, use as guide
COc1ccc(C2=CCCCc3c2ccc(OC)c3O)cc1 [Compound 67]	10.6
COc1cc(C2=CCCCc3c2ccc(OC)c3OC)cc(OC)c1OC [Compound 35]	0.593
COc1ccc2c(c1O)CCCC=C2c1ccccc1 [Compound 64]	0.652

Now let's try a different one.
Report measured GI50 on NCI-H460 (lung); entry: COc1cc(C2=CCCCc3c2ccc(O)c3O)cc(OC)c1OC [Compound 70] 0.691
